- EXPERIMENT SUMMARY: Dynamic solubility in SGF, FaSSIF, FeSSIF and water at 37° C.
- Type: physicochemical
- EXPERIMENTAL PARAMETERS: FeSSIF, thermodynamic from solid, FeSSIF, sampling at 1, 2, 4 and 24 h, time point of the value not stated, read-out: Dynamic solubility in FeSSIF
Recorded solubility for the following compounds

# solubility (compound: CCN(c1cc(O[C@H]2C[C@H](N3CCCCC3)C2)cc(C(=O)NCc2c(C)cc(C)[nH]c2=O)c1C)C1CCOCC1 [Free crystal form D] ) is > 7350 µg/mL

# solubility (compound: CCN(c1cc(O[C@H]2C[C@H](N3CCCCC3)C2)cc(C(=O)NCc2c(C)cc(C)[nH]c2=O)c1C)C1CCOCC1.O=C(O)CCC(=O)O [Crystal form A of succinate] ) is > 7350 µg/mL

# solubility (compound: Br.CCN(c1cc(O[C@H]2C[C@H](N3CCCCC3)C2)cc(C(=O)NCc2c(C)cc(C)[nH]c2=O)c1C)C1CCOCC1 [Crystal form A of hydrobromide] ) is 5330 µg/mL

# solubility (compound: CCN(c1cc(O[C@H]2C[C@H](N3CCCCC3)C2)cc(C(=O)NCc2c(C)cc(C)[nH]c2=O)c1C)C1CCOCC1.O=C(O)/C=C\C(=O)O [Crystal form A of maleate] ) is > 7350 µg/mL

###

Recorded DVS vapor sorption (25° C./80% RH, %) for the following molecules
- EXPERIMENT SUMMARY: Hygroscopicity by dynamic vapor sorption (DVS)
- Assay type: physicochemical
- EXPERIMENTAL PARAMETERS: 25° C./80% RH
Reply with the number and its unit after it.

For orientation, consider the following solved cases.
CCN(c1cc(O[C@H]2C[C@H](N3CCCCC3)C2)cc(C(=O)NCc2c(C)cc(C)[nH]c2=O)c1C)C1CCOCC1 [Free crystal form D] ... 1.3%
CCN(c1cc(O[C@H]2C[C@H](N3CCCCC3)C2)cc(C(=O)NCc2c(C)cc(C)[nH]c2=O)c1C)C1CCOCC1.O=C(O)/C=C\C(=O)O [Crystal form A of maleate] ... 0.4%
Br.CCN(c1cc(O[C@H]2C[C@H](N3CCCCC3)C2)cc(C(=O)NCc2c(C)cc(C)[nH]c2=O)c1C)C1CCOCC1 [Crystal form A of hydrobromide] ... 5.2%

Now turn to the next molecule.
# DVS vapor sorption (25° C./80% RH, %) (molecule: CCN(c1cc(O[C@H]2C[C@H](N3CCCCC3)C2)cc(C(=O)NCc2c(C)cc(C)[nH]c2=O)c1C)C1CCOCC1.O=C(O)CCC(=O)O [Crystal form A of succinate] ) is 2.1%

###

- EXPERIMENT SUMMARY: Dynamic solubility in SGF, FaSSIF, FeSSIF and water at 37° C.
- Assay type: physicochemical
- EXPERIMENTAL PARAMETERS: water, thermodynamic from solid, water, sampling at 1, 2, 4 and 24 h, time point of the value not stated, read-out: Dynamic solubility in water
METRIC NAME: solubility

Br.CCN(c1cc(O[C@H]2C[C@H](N3CCCCC3)C2)cc(C(=O)NCc2c(C)cc(C)[nH]c2=O)c1C)C1CCOCC1 [Crystal form A of hydrobromide] ... 4260 µg/mL
CCN(c1cc(O[C@H]2C[C@H](N3CCCCC3)C2)cc(C(=O)NCc2c(C)cc(C)[nH]c2=O)c1C)C1CCOCC1 [Free crystal form D] ... 16 µg/mL
CCN(c1cc(O[C@H]2C[C@H](N3CCCCC3)C2)cc(C(=O)NCc2c(C)cc(C)[nH]c2=O)c1C)C1CCOCC1.O=C(O)/C=C\C(=O)O [Crystal form A of maleate] ... 6990 µg/mL

Now turn to the next compound.
# solubility (compound: CCN(c1cc(O[C@H]2C[C@H](N3CCCCC3)C2)cc(C(=O)NCc2c(C)cc(C)[nH]c2=O)c1C)C1CCOCC1.O=C(O)CCC(=O)O [Crystal form A of succinate] ) is > 8440 µg/mL

###

- EXPERIMENT SUMMARY: Dynamic solubility in SGF, FaSSIF, FeSSIF and water at 37° C.
- Type: physicochemical
- EXPERIMENTAL PARAMETERS: FaSSIF, thermodynamic from solid, FaSSIF, sampling at 1, 2, 4 and 24 h, time point of the value not stated, read-out: Dynamic solubility in FaSSIF
- Description: The purity and solubility of the samples in the test were tested by Waters ultra performance liquid chromatograph, and the conditions are shown in Table 6: In the test, 45 mg of the solid and 4.5 mL of the vehicle were mixed in a 5 mL centrifuge tube, then the centrifuge tube was sealed and fixed on a rotating disk at a rotating speed of 40 rpm, and the rotating disk was placed in a 37° C. incubator. […]
Recorded solubility for the following compounds
// return numeric value only (unit: µg/mL, not printed)

For orientation, consider the following solved cases.
Br.CCN(c1cc(O[C@H]2C[C@H](N3CCCCC3)C2)cc(C(=O)NCc2c(C)cc(C)[nH]c2=O)c1C)C1CCOCC1 [Crystal form A of hydrobromide] ... 1390
CCN(c1cc(O[C@H]2C[C@H](N3CCCCC3)C2)cc(C(=O)NCc2c(C)cc(C)[nH]c2=O)c1C)C1CCOCC1.O=C(O)CCC(=O)O [Crystal form A of succinate] ... 5390
CCN(c1cc(O[C@H]2C[C@H](N3CCCCC3)C2)cc(C(=O)NCc2c(C)cc(C)[nH]c2=O)c1C)C1CCOCC1.O=C(O)/C=C\C(=O)O [Crystal form A of maleate] ... 4150

Now turn to the next compound.
# solubility (compound: CCN(c1cc(O[C@H]2C[C@H](N3CCCCC3)C2)cc(C(=O)NCc2c(C)cc(C)[nH]c2=O)c1C)C1CCOCC1 [Free crystal form D] ) is 420

###

Recorded solubility for the following compounds
- EXPERIMENT SUMMARY: Dynamic solubility in SGF, FaSSIF, FeSSIF and water at 37° C.
- Assay type: physicochemical
- EXPERIMENTAL PARAMETERS: SGF, simulated gastric fluid, thermodynamic from solid, SGF, sampling at 1, 2, 4 and 24 h, time point of the value not stated, read-out: Dynamic solubility in SGF

For orientation, consider the following solved cases.
CCN(c1cc(O[C@H]2C[C@H](N3CCCCC3)C2)cc(C(=O)NCc2c(C)cc(C)[nH]c2=O)c1C)C1CCOCC1.O=C(O)/C=C\C(=O)O [Crystal form A of maleate] ... ≥ 6 mg/mL
CCN(c1cc(O[C@H]2C[C@H](N3CCCCC3)C2)cc(C(=O)NCc2c(C)cc(C)[nH]c2=O)c1C)C1CCOCC1 [Free crystal form D] ... 6.98 mg/mL

Now turn to the next compound.
# solubility (compound: CCN(c1cc(O[C@H]2C[C@H](N3CCCCC3)C2)cc(C(=O)NCc2c(C)cc(C)[nH]c2=O)c1C)C1CCOCC1.O=C(O)CCC(=O)O [Crystal form A of succinate] ) is ≥ 6 mg/mL

This collection of values is drawn from patent US12528795B2.
